// provenance: patent US20200140446A1

# assay remarks: Dynamic Vapour Sorption (DVS), hygroscopicity
# Format: physicochemical
# setup conditions: summary of solid forms of Compound (I), Table 2
result type: Hygroscopic (Yes/No)

Here's what some known entries look like.
Query :: # Hygroscopic (Yes/No) lookup, item Cl [Hydrogen Chloride]
Result :: Yes

Query :: # Hygroscopic (Yes/No) lookup, item Br.Cc1ncc(C)n2nc(CCc3nc(-c4ccccc4)cn3C)nc12 [Hydrogen Bromide]
Result :: Yes

Query :: # Hygroscopic (Yes/No) lookup, item Cc1ncc(C)n2nc(CCc3nc(-c4ccccc4)cn3C)nc12 [Compound (I) hemiadipate]
Result :: No

Query :: # Hygroscopic (Yes/No) lookup, item O=C(O)CCC(=O)C(=O)O [2-oxoglutarate]
Result :: Yes

Attention now shifts to the item below.
Query :: # Hygroscopic (Yes/No) lookup, item Cc1ncc(C)n2nc(CCc3nc(-c4ccccc4)cn3C)nc12.O=C[C@H](O)[C@@H](O)[C@H](O)[C@H](O)C(=O)O [D-glucoronate]
Result :: Yes
